This collection of values is drawn from patent US10882838B2.

Recorded Ki values for a group of molecules are listed next.
STUDY SYSTEM: mCB2 receptor (Mus musculus (Mouse), UniProt P47936)
ASSAY NOTES: mCB2 competition-equilibrium binding with [3H]CP-55,940, membranes of HEK293 cells expressing mCB2
EXPERIMENTAL CONTEXT: HEK293 cells expressing mCB2, [3H]CP-55,940; read-out: mCB2 Ki

Examples with answers:
>>> test_result("CC1=CC[C@@H]2[C@@H](C1)c1c(O)cc(CC(=O)O)cc1OC2(C)C [Compound 1.26]")
"> 10 µM"
>>> test_result("CC1=CC[C@@H]2[C@@H](C1)c1c(O)cc(C(C)(C)C(=O)OCCCC#N)cc1OC2(C)C [Compound 1.8]")
"0.0007 µM"
>>> test_result("CCCCOC(=O)C(C)c1cc(O)c2c(c1)OC(C)(C)[C@@H]1CC=C(C)C[C@@H]21 (stereo partly shown) [Compound 1.12]")
"0.0012 µM"
>>> test_result("CC1=CC[C@@H]2[C@@H](C1)c1c(O)cc([C@H](C)C(=O)O)cc1OC2(C)C [Compound 1.15]")
"> 10 µM"
>>> test_result("CCOC(=O)C(C)(C)c1cc(OC)c(-c2cccc(C#N)c2)c(OC)c1 [Compound 4.1]")
"> 1 µM"
>>> test_result("CCOC(=O)C(C)(C)c1cc(OC)c(-c2cc(Cl)cc(Cl)c2)c(OC)c1 [Compound 4.6]")
"1 µM"

q: Specify Ki for CC1=CC[C@@H]2[C@@H](C1)c1c(O)cc(CC(=O)OCCCCBr)cc1OC2(C)C [Compound 1.27] , system mCB2 receptor (Mus musculus (Mouse), UniProt P47936).
a: 0.0116 µM

q: Under mCB2 receptor (Mus musculus (Mouse), UniProt P47936), report Ki for CC1=CC[C@@H]2[C@@H](C1)c1c(O)cc(CC(=O)OCCCCC#N)cc1OC2(C)C [Compound 1.28]
a: 0.0021 µM

q: Write down measured Ki (mCB2 receptor (Mus musculus (Mouse), UniProt P47936)) for this molecule. CC(C)(C(=O)O)c1cc(O)c2c(c1)OC(C)(C)[C@@H]1CCC(=O)C[C@@H]21 [Compound 3.3]
a: > 10 µM

q: Give measured Ki for CC1=CC[C@@H]2[C@@H](C1)c1c(O)cc([C@@H](C)C(=O)O)cc1OC2(C)C [Compound 1.13] (mCB2 receptor (Mus musculus (Mouse), UniProt P47936)).
a: > 10 µM

----------
ASSAY NOTES: Stability in plasma (half-life)
Assay type: in vitro ADME, rat or monkey
EXPERIMENTAL CONTEXT: method: 200 μM in plasma, 37°; species of plasma not given
READOUT: half-life at 200 μM

>>> test_result("CCCCOC(=O)C(C)(C)c1cc(O)c2c(c1)OC(C)(C)[C@@H]1CC=C(CO)C[C@@H]21 [Compound 2.2]")
"5 min"
>>> test_result("CCCCOC(=O)C1(c2cc(O)c3c(c2)OC(C)(C)[C@@H]2CC=C(C)C[C@@H]32)CCC1 [Compound 1.20]")
"40 min"
>>> test_result("COC(=O)C(C)(C)c1cc(O)c2c(c1)OC(C)(C)[C@@H]1CC=C(C)C[C@@H]21 [Compound 1.34]")
"60 min"
>>> test_result("CC1=CC[C@@H]2[C@@H](C1)c1c(O)cc(C3(C(=O)OCCCCBr)CCC3)cc1OC2(C)C [Compound 1.18]")
"50 min"
>>> test_result("CC1=CC[C@@H]2[C@@H](C1)c1c(O)cc(CC(=O)OCCCCBr)cc1OC2(C)C [Compound 1.27]")
"3 min"

q: Query half-life at 200 μM for CCCCOC(=O)Cc1cc(O)c2c(c1)OC(C)(C)[C@@H]1CC=C(C)C[C@@H]21 [Compound 1.29]
a: 5 min

q: Consider the compound CC1=CC[C@@H]2[C@@H](C1)c1c(O)cc(C(C)(C)C(=O)OCCCN3CCOCC3)cc1OC2(C)C [Compound 1.25] and give its recorded half-life at 200 μM.
a: 200 min
